The following compounds are shown together with reported normalized growth values.
- METHOD SUMMARY: chemical genetic growth profiling, strain panel (AID 1159580);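 also: tested at 20 µM; growth read once vehicle control cultures reached saturation at 30 °C; 1 = growth at the plate median or of vehicle wells; lower values mean less growth of the strain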
- DETAILS: S. cerevisiae deletion strains, growth OD, locus YLL026W, hits give low values
The whole screen tested about 5,500 compounds, of which about 2,000 (36%) were called active. Another 18% or so got no clear call; they are omitted. This is one part of the list.
Enter a number only.

[in] Please look at this compound and report its normalized growth: CC(=O)O[C@H]1C(=O)[C@@]2(C)C([C@H](OC(=O)c3ccccc3)[C@]3(O)C[C@H](O)C(C)=C1C3(C)C)[C@]1(OC(C)=O)CO[C@@H]1C[C@@H]2O (stereo partly specified)
[out] 0.999

[in] Please look at this compound and report its normalized growth: CCC1(c2ccc(N)cc2)CCC(=O)NC1=O (stereo unspecified)
[out] 0.956

[in] Please look at this compound and report its normalized growth: COc1cc2c(cc1OC)C(=O)C(CC1CCN(Cc3ccccc3)CC1)C2 (stereo unspecified)
[out] 1

[in] Please look at this compound and report its normalized growth: COc1ccc(-c2cc(=O)c3c(O)cc(OC)c(OC)c3o2)c(OC)c1
[out] 1.02

[in] Please look at this compound and report its normalized growth: CC(=O)O[C@]1(C(C)=O)CCC2C3C=C(C)C4=CC(=O)CCC4(C)C3CCC21C (stereo partly specified)
[out] 0.941

[in] Please look at this compound and report its normalized growth: Cc1cc(=O)c2c(O)c(C)c(O)cc2o1
[out] 1.01

----------
- METHOD SUMMARY: chemical genetic growth profiling, strain panel (AID 1159580)
- DETAILS: S. cerevisiae deletion strains, growth OD, locus YJL187C, strain SWE1 (second series)
The whole screen tested about 5,500 compounds, of which about 2,000 (36%) were called active. Inconclusive results (about 18%) are left out. Rule as the data show it: active = normalized growth mostly below about 0.91 (no sharp cut-off); inconclusive = no clear call, values can overlap the other calls; inactive = mostly above about 0.92. The list shows a part of the results.
The reply should be one of these categories: active, inactive

Here are 4 compounds together with their reported answers.
[[record]]
compound = "O[C@H]1C=C2CCN3Cc4cc5c(cc4C(C23)[C@@H]1O)OCO5 (some centres undefined)"
classification = "active"

[[record]]
compound = "COC1C(O)C(O)C(O)[C@@H](O)C1O (some centres undefined)"
classification = "inactive"

[[record]]
compound = "CC(=O)O[C@]1(C(C)=O)CCC2C3C[C@H](C)C4=CC(=O)CC[C@]4(C)C3CC[C@@]21C (some centres undefined)"
classification = "inactive"

[[record]]
compound = "CCCCCC(=O)O[C@]1(C(C)=O)CCC2C3CCC4=CC(=O)CC[C@]4(C)C3CC[C@@]21C (some centres undefined)"
classification = "inactive"


[in] Which outcome was assigned to O=C1C[C@@H](c2ccc(O)cc2)Oc2cc(O)cc(O)c21 in this test?
[out] inactive

----------
- METHOD SUMMARY: chemical genetic growth profiling, strain panel (AID 1159580)
- DETAILS: S. cerevisiae deletion strains, growth OD, locus YBR231C, strain swc5
In all, about 5,500 compounds went through this assay and about 2,000 (36%) were called active. Not shown: some 18% with an inconclusive outcome. No stated cut-off is given here; in the data, active means normalized growth mostly below about 0.91 (no sharp cut-off); inconclusive means no clear call, values can overlap the other calls; inactive means mostly above about 0.92. The list shows a part of the results.
The reply should be one of these categories: active, inactive

Here are 6 molecules together with their reported answers.
[[record]]
molecule = "COc1cc(O)c2c(=O)cc(C)oc2c1CC=C(C)C"
classification = "inactive"

[[record]]
molecule = "CCCCCC(=O)O[C@]1(C(C)=O)CCC2C3CCC4=CC(=O)CC[C@]4(C)C3CC[C@@]21C (stereo partly specified)"
classification = "inactive"

[[record]]
molecule = "c1ccc(CC2=NCCN2)cc1"
classification = "inactive"

[[record]]
molecule = "COc1ccc(C[C@H]2NC[C@H](O)[C@H]2OC(C)=O)cc1"
classification = "active"

[[record]]
molecule = "N#Cc1c(Cl)c(Cl)c(Cl)c(C#N)c1Cl"
classification = "active"

[[record]]
molecule = "CC(=O)O[C@]1(C(C)=O)CCC2C3C[C@H](C)C4=CC(=O)CC[C@]4(C)C3CC[C@@]21C (stereo partly specified)"
classification = "inactive"


[in] Which outcome was assigned to COc1c(O)cc2oc3cc(O)c(CC=C(C)C)c(O)c3c(=O)c2c1CC=C(C)C in this test?
[out] active

[in] Which outcome was assigned to CC(=O)OCC(CCn1cnc2cnc(N)nc21)COC(C)=O in this test?
[out] inactive

[in] Which outcome was assigned to Cc1cc(=O)c2c(O)cc(O)c(C)c2o1 in this test?
[out] inactive

[in] Which outcome was assigned to CN1CCc2cc3c(cc2C1O)OCO3 (stereo unspecified) in this test?
[out] inactive

[in] Which outcome was assigned to CCCCCCCCCCCCC[N+](C)(C)Cc1ccccc1 in this test?
[out] active

----------
- METHOD SUMMARY: chemical genetic growth profiling, strain panel (AID 1159580);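 also: tested at 20 µM; growth read once vehicle control cultures reached saturation at 30 °C; 1 = growth at the plate median or of vehicle wells; lower values mean less growth of the strain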
- DETAILS: S. cerevisiae deletion strains, growth OD, locus YJL166W, strain qcr8
Among all 5,500 compounds or so, about 2,000 (36%) were called active. About 18% were inconclusive and are not listed. Cut-off read from the data, not from the text of the source: active = normalized growth mostly below about 0.91 (no sharp cut-off); inconclusive = no clear call, values can overlap the other calls; inactive = mostly above about 0.92. The list shows a part of the results.
The reply should be one of these categories: active, inactive

Here are 6 molecules together with their reported answers.
[[record]]
molecule = "COc1ccc(C[C@H]2NC[C@H](O)[C@H]2OC(C)=O)cc1"
classification = "active"

[[record]]
molecule = "O=C1CC(c2ccc(O)c(O)c2)Oc2cc(O)cc(O)c21 (configuration not stated)"
classification = "inactive"

[[record]]
molecule = "NC(=O)N1c2ccccc2CC(=O)c2ccccc21"
classification = "inactive"

[[record]]
molecule = "COc1cccc([C@]2(O)CCCC[C@H]2CN(C)C)c1"
classification = "inactive"

[[record]]
molecule = "COc1ccc(-c2coc3c(O)c(OC)ccc3c2=O)cc1"
classification = "active"

[[record]]
molecule = "CN1C2CC3C[C@H]1C(O3)C2O (some centres not stated)"
classification = "inactive"


[in] Which outcome was assigned to C=CCc1ccc2c(c1)OCO2 in this test?
[out] inactive

[in] Which outcome was assigned to COC(=O)[C@@H]1C(O)CC[C@H]2CN3CCc4c([nH]c5ccccc45)[C@@H]3C[C@@H]21 (some centres not stated) in this test?
[out] inactive

[in] Which outcome was assigned to Cc1c(N(C)C)c(=O)n(-c2ccccc2)n1C in this test?
[out] inactive

[in] Which outcome was assigned to O=c1ccc2cc(O)c(O)cc2o1 in this test?
[out] inactive

[in] Which outcome was assigned to COc1ccc(-c2coc3c(OC)c(OC)cc(O)c3c2=O)cc1 in this test?
[out] inactive

----------
- METHOD SUMMARY: chemical genetic growth profiling, strain panel (AID 1159580);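 also: tested at 20 µM; growth read once vehicle control cultures reached saturation at 30 °C; 1 = growth at the plate median or of vehicle wells; lower values mean less growth of the strain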
- DETAILS: S. cerevisiae deletion strains, growth OD, locus YOR083W, strain WHI5, hits give low values
The whole screen tested about 5,500 compounds, of which about 2,000 (36%) were called active. Inconclusive results (about 18%) are left out. This is one part of the list.
METRIC: normalized growth
Enter a number only.

[[record]]
molecule = "O=C1CC(c2ccc(O)c(O)c2)Oc2cc(O)cc(O)c21 (configuration not stated)"
metric = "normalized growth"
data_value = 0.951

[[record]]
molecule = "C/C=C(/C(=C/C)c1ccc(O)cc1)c1ccc(O)cc1"
metric = "normalized growth"
data_value = 0.929

[[record]]
molecule = "C1CCc2nnnn2CC1"
metric = "normalized growth"
data_value = 1.02


Please examine the following record next.
[in] Please look at this molecule and report its normalized growth: Cc1ccc(O)cc1
[out] 1.01

----------
The following compounds are shown together with reported normalized growth values.
- METHOD SUMMARY: chemical genetic growth profiling, strain panel (AID 1159580);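 also: tested at 20 µM; growth read once vehicle control cultures reached saturation at 30 °C; 1 = growth at the plate median or of vehicle wells; lower values mean less growth of the strain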
- DETAILS: S. cerevisiae deletion strains, growth OD, locus YDR101C, strain arx1, hits give low values
In all, about 5,500 compounds went through this assay and about 2,000 (36%) were called active. Not shown: some 18% with an inconclusive outcome. The list shows a part of the results.
Enter a number only.

Solved entries (count: 7):
[[record]]
compound = "C=CC(C)(C)c1c2c(c(O)c3c(=O)c4ccc(O)c(O)c4oc13)C=CC(C)(C)O2"
data_value = 0.973

[[record]]
compound = "CC(C)=CCc1c(O)cc(C)oc1=O"
data_value = 1.01

[[record]]
compound = "O=c1ccc2cc(O)c(O)cc2o1"
data_value = 0.98

[[record]]
compound = "CC(=O)O[C@]1(C(C)=O)CCC2C3C=C(C)C4=CC(=O)CCC4(C)C3CCC21C (stereo partly drawn)"
data_value = 0.969

[[record]]
compound = "Cc1ccc(O)cc1"
data_value = 0.98

[[record]]
compound = "CC(=O)O[C@]1(C(C)=O)CCC2C3C[C@H](C)C4=CC(=O)CC[C@]4(C)C3CC[C@@]21C (stereo partly drawn)"
data_value = 0.999

[[record]]
compound = "OCCN(CCO)c1nc(N2CCCCC2)c2nc(N(CCO)CCO)nc(N3CCCCC3)c2n1"
data_value = 0.99


Please examine the following record next.
[in] Please look at this compound and report its normalized growth: COc1cc(OC)c2c(c1)O[C@H](c1ccc(OC)c(OC)c1)[C@@H](O)C2
[out] 0.99

Hello, the source for this data is PubChem BioAssay AID1159580, in case you need it.
